Cited source for all entries: PubChem BioAssay (NCI)

# System: HOP-62 NSCLC
# experimental.details: NCI tumour cell line growth inhibition, 48 h
Documented TGI across a set of molecules

In [3]: df
Out[3]:
                           molecular_string  value_measured
0  COC(C/C(=C/CO[Si](C(C)C)(C(C)C)C(C)C)C(=O)N(C(=O)OC(C)(C)C)c1ccccc1I)OC        > 100 µM
1  COC1=C[C@]2(CCC(=O)O2)[C@@H]2Cc3ccccc3[C@H](O)[C@@H]2C1=O        > 100 µM
2  Cc1ccccc1C1=C(c2cn(C)c3ccccc23)C(=O)NC1=O         > 25 µM

Then there is this molecule:
Task item: Tell me the measured TGI of COc1cccc(C=O)c1C(=O)c1cc(O)ccc1O , please.
Reply: > 100 µM

---

# Test system: HT29 colon
# experimental.details: NCI tumour cell line growth inhibition, 48 h
assay.metric: TGI

Take a look at these entries with their results.
In [3]: df
Out[3]:
                                   molecule  value_measured
0               O=C(O)CCCCn1ccc(=O)[nH]c1=O        > 100 µM
1  COc1ccc2c(c1)CC[C@@H]1C2CC[C@]2(C)C(=O)N(CCN(C)C)C(=O)CC12 (some centres undefined)        > 100 µM
2          COc1cccc(C=O)c1C(=O)c1cc(O)ccc1O       > 76.3 µM

Turning to the following molecule.
Task item: Query: TGI; subject: C[C@H](c1ccc(F)cc1CCCC(=O)O)N(c1cc(F)ccc1F)S(=O)(=O)c1ccc(Cl)cc1
Reply: > 100 µM

---

Catalogue of molecules with associated TGI
# Tested on: MALME-3M melanoma
# experimental.details: NCI tumour cell line growth inhibition, 48 h

Task item: Consider the molecule shown here: O=C1Nc2ccccc2/C1=C\c1c(-c2ccccc2)nc2sccn12 What is its recorded TGI?
Reply: 21.7 µM

Task item: How about this molecule: c1ccc2c(c1)SC(=C1Sc3ccccc3S1)S2
Reply: > 100 µM

Task item: Input CC(=O)c1ccccc1NC(=O)C(=O)C(C(=O)c1ccc2ccccc2c1)C1OC(=O)c2ccccc21 (stereo not drawn)
Reply: 23.3 µM

---

# System: M14 melanoma
# experimental.details: NCI tumour cell line growth inhibition, 48 h
# TGI annotations

                                   compound  value_measured
0  Cc1ncc([N+](=O)[O-])n1CC[N+](C)([O-])CCCCn1ccnc1[N+](=O)[O-] (centres undefined)        > 100 µM
1                 Cn1cnc(N2CCCC2)c(C#N)c1=S        > 100 µM
2  CC(=O)OCC1OC(n2cnc3nc(Br)[nH]c(=O)c32)C(OC(C)=O)C1OC(C)=O (centres undefined)        > 100 µM

Turning now to a further compound:
Task item: Any idea what TGI was measured for Fc1ccc(-c2sc(-c3ccsc3)cc2Cc2ccsc2)cc1 ?
Reply: > 10 µM

---

Quick list: TGI per entry.
# Tested on: K-562 leukemia
# experimental.details: NCI tumour cell line growth inhibition, 48 h
Where a SMILES comes first, the peptide text is derived from it. The star is where a group is joined. Boc = CC(C)(C)OC(=O)*

Below, 10 molecules whose answers are already recorded.
                                   molecule  value_measured
0    CCN1c2ccccc2NC(=S)c2c1n[nH]c2-c1ccccc1         39.8 µM
1                       Fc1cc(F)c(F)c(S)c1F        > 100 µM
2  COc1ccc(/C=C/C(=O)c2c(O)ccc3c(C)c(C(=O)O)oc23)cc1        > 100 µM
3  COc1cccc2c1OC1Sc3ccccc3-c3nn(-c4ccccc4)c-2c31 (configuration not stated)        > 100 µM
4                 Cn1cnc(N2CCCC2)c(C#N)c1=S        > 100 µM
5  OCC1OC2c3ccccc3COC2C1OCc1ccccc1 (configuration not stated)        > 100 µM
6     Fc1ccc(-c2sc(-c3ccsc3)cc2Cc2ccsc2)cc1         > 10 µM
7         CC(C)OP(=S)(NC(=S)c1ccccc1)OC(C)C        > 100 µM
8  COC(=O)C(Cc1ccccc1)NC(=O)C(CS)NC(=O)OC(C)(C)C (stereo not drawn) (Boc-Cys-Phe-OMe; configuration not given here)        > 100 µM
9  CN(C)CCNC(=O)c1cccc2ccc(-c3ccc(Br)cc3)nc12          9.2 µM

Task item: Please report the recorded TGI for Cc1nnc(N)nc1/C=C\c1ccc(Cl)cc1Cl .
Reply: > 100 µM

Task item: Can you check O=C1Nc2ccccc2/C1=C\c1c(-c2ccccc2)nc2sccn12 next?
Reply: > 45.8 µM

---

# Tested on: HT29 colon
# experimental.details: NCI tumour cell line growth inhibition, 48 h
TGI overview

>>> df
                                   molecule  assay_metric  value_measured
0  CNC(=O)c1nn(C)c2c1C(C)(C)Cc1cnc(Nc3cccc(N4CCN(C)CC4)c3)nc1-2           TGI         > 35 µM
1           c1ccc2c(c1)SC(=C1Sc3ccccc3S1)S2           TGI        > 100 µM
2  CCn1c(-c2nonc2N)nc2c(C#CC(C)(C)O)ncc(OC3CCNCC3)c21           TGI         > 25 µM
3  COC(=O)[C@H](CC(C)C)NC(=O)[C@H](Cc1ccccc1)N1CC2C=CC1C2 (stereo not given in full)           TGI        > 100 µM

Please find the next molecule below.
Task item: GET /values?readout=TGI&item= O=C(CN1CCCC1=O)CS(=O)(=O)c1ccccc1
Reply: > 100 µM

---

# Test system: ACHN renal
# experimental.details: NCI tumour cell line growth inhibition, 48 h
Lab note: compare TGI against 50 µM. Equal or greater, write True. Smaller, write False.

molecule	discrete.label
O=c1[nH]c(=O)c2ncn(-c3ccc([N+](=O)[O-])cn3)c2[nH]1	True

Task item: Check if TGI >= 50 µM (inclusive). Item: COc1ccc2c(c1)Oc1cc(O)ccc1[C@H]2c1ccccc1C(=O)NC(C)c1ccccc1 (stereo partly specified)
Reply: False

Task item: Moving on to the next molecule: COc1cc2c(NCCCCCO)ncnc2c(OC)c1OC
Reply: True

Task item: Next up: CC(C)NC(=O)OCc1c(COC(=O)NC(C)C)c(-c2ccc[n+](COC(=O)Cc3ccccc3)c2)n2c1CCC2
Reply: False

Task item: Another molecule to check: CN1C(=O)CC2(C)c3cc(O)cc(Br)c3N(C)C12 (stereo unspecified)
Reply: True

Task item: Try this molecule too: O=C(O)CCCCn1ccc(=O)[nH]c1=O
Reply: True

---

# Test system: TK-10 renal
# experimental.details: NCI tumour cell line growth inhibition, 48 h
assay.metric: TGI

Some compounds with recorded TGI:
                                   compound  assay_metric  value_measured
0  CSc1ncc2c(n1)-c1ccccc1OC2N1CCOCC1 (stereo not drawn)           TGI        > 100 µM
1  O=C(O)CN(c1ccccc1)S(=O)(=O)c1cccc([N+](=O)[O-])c1           TGI        > 100 µM

Now for another entry.
Task item: # get_value(readout='TGI', item= Cc1ccc(C)c2c1C(=O)N(c1ccc(F)cc1F)C2=O )
Reply: > 100 µM

---

# Test system: TK-10 renal
# experimental.details: NCI tumour cell line growth inhibition, 48 h
assay.metric: TGI

Completed entries (count: 2):
>>> df
                                   molecule  value_measured
0  OCC1OC2c3ccccc3COC2C1OCc1ccccc1 (stereo not drawn)        > 100 µM
1  O=C(CCC(=O)Nc1ccc(Cl)c(Cl)c1)CC(=O)c1ccc2ccccc2c1        > 100 µM

// next item, TGI requested
Task item: Find the recorded TGI belonging to Cc1nn(C(=O)c2ccccc2O)c2c1C(c1ccc(O)cc1O)SC(N)=N2 (stereo not drawn) and report it.
Reply: > 10 µM

---

# System: KM12 colon
# experimental.details: NCI tumour cell line growth inhibition, 48 h
assay.metric: TGI

Examples with their reported TGI follow.
>>> print(df.to_string())
                                   compound  value_measured
0  O=[N+]([O-])c1cc(-c2nc(=S)[nH][nH]2)ccc1O        > 100 µM
1  CCn1c2nc(=O)n(CCCCCCCCSC(c3ccccc3)(c3ccccc3)c3ccccc3)c(=O)c-2nc2ccccc21        > 100 µM

Continue with the compound presented below.
Task item: Query (compound): COc1ccc2c(c1)N(Cc1ccc(Cl)cc1)CCC2N1CCCC1=O (stereo not drawn) ; field requested: TGI
Reply: 29.3 µM
